Target: human recombinant ALR2 (Homo sapiens)
Assay: ALR2 enzyme inhibition assay (NADPH oxidation, D,L-glyceraldehyde substrate)
Type: biochemical
Conditions: n = 3, mean ± SD; read-out: IC50 for ALR2
Protocol: All the title compounds were tested for their inhibitory activity against human recombinant ALR2. The ALR2 inhibition activity was evaluated in a mixture of reaction with 50 μL NADPH (0.1 mM), 50 μL sodium phosphate buffer (pH = 6.2, 100 mM), 50 μL human recombinant ALR2, 1 μL dimethyl sulfoxide (DMSO) as solvent, and 50 μL D,L-glyceraldehyde (10 mM) which served as a substrate. […]
Hi there, I'd appreciate the recorded log10 IC50 for every entry that follows.
Would you kindly interpret these values as log10 of IC50 expressed in µM?

Q) Entry O=C(O)Cn1cc(O)c(=O)cc1C=Cc1ccc(F)cc1 [7f] : reported log10 IC50 = ?
A) 0.82

Q) Would you kindly share the measured log10 IC50 for COc1ccc(C=Cc2cc(=O)c(O)cn2CC(=O)O)cc1 [7d] ?
A) 0.83

Q) Name the reported log10 IC50 value associated with the compound CS(=O)(=O)c1ccc(C=Cc2cc(=O)c(O)cn2CC(=O)O)cc1 [7i]
A) 1.23

Q) Please report the recorded log10 IC50 for O=C(O)Cn1cc(O)c(=O)cc1C=Cc1ccc(C(F)(F)F)cc1 [7h] .
A) 1.03

Q) Item O=C(O)Cn1cc(O)c(=O)cc1C=Cc1ccc(F)c(F)c1 [7g] has what recorded log10 IC50?
A) 0.32

Q) What measured log10 IC50 goes with CC(C)(C)c1ccc(C=Cc2cc(=O)c(O)cn2CC(=O)O)cc1 [7c] ?
A) 0.47

Q) Fill in: log10 IC50 of Cc1ccc(C=Cc2cc(=O)c(O)cn2CC(=O)O)cc1 [7b] is ___
A) 0.72

Q) Recorded log10 IC50 of O=C(O)Cn1cc(O)c(=O)cc1C=Cc1ccccc1 [7a] , please.
A) 0.92

Q) Sample O=C(O)Cn1cc(O)c(=O)cc1C=Cc1ccc(O)c(O)c1 [7l] — what was its log10 IC50?
A) -0.10

Q) For the compound shown here, Nc1ccc(C=Cc2cc(=O)c(O)cn2CC(=O)O)cc1 [7j] , give the reported log10 IC50.
A) 0.91

Q) Look up log10 IC50 for this compound: COc1ccc(C=Cc2cc(=O)c(O)cn2CC(=O)O)cc1OC [7e]
A) 0.98

Q) Dear colleague, I am looking for the recorded log10 IC50 of the following compound: O=C(O)Cn1cc(O)c(=O)cc1C=Cc1ccc(O)cc1 [7k]
A) 0.37

###

Tested on: lipid peroxidation in rat brain homogenate
Assay: Lipid peroxidation suppression (TBARS/MDA) in rat brain homogenate induced by Fe(III)/ascorbic acid
Assay type: biochemical
Settings: tested in concentration of 100 μM, n = 3
The threshold is inclusive: MDA inh. % of exactly 70% counts as label 1; values below receive label 0.

Q) Could you tell me if the measured MDA inh. % of `O=C(O)Cn1cc(O)c(=O)cc1C=Cc1ccc(O)cc1` reaches 70% or more?
A) label 1

Q) Entry `O=C(O)Cn1cc(O)c(=O)cc1C=Cc1ccc(O)c(O)c1` : is its MDA inh. % no less than 70%?
A) label 1

Q) Say whether Cc1c(C)c2c(c(C)c1O)CCC(C)(C(=O)O)O2 (stereo not drawn) [Trolox, reference compound] shows MDA inh. % of 70% or more.
A) label 1

Q) hey, is MDA inh. % for this one >= 70%? `O=C(O)Cn1cc(O)c(=O)cc1C=Cc1ccc(F)c(F)c1`
A) label 0

Q) Quick check: does `O=C(O)Cn1cc(O)c(=O)cc1C=Cc1ccccc1` have MDA inh. % greater than or equal to 70%?
A) label 0

Q) Determine whether measured MDA inh. % meets or exceeds 70% for `CC(C)(C)c1ccc(C=Cc2cc(=O)c(O)cn2CC(=O)O)cc1`
A) label 0
